Form: system (Ubiquitin-conjugating enzyme E2 N (Homo sapiens, UniProt P61088)), quantity (pIC50), values below.
Reminder that pIC50 is minus the log10 of a molar concentration.

The examples below pair each entry with its known result.
SUBSTANCE SMILES	PROPERTY NAME	RECORDED RESULT
C#CCOCCOCCOCCNc1nc(N2CCN(C(=O)CCCCCCCCCCNC(=O)[C@H](CCCCN)n3cc(C)nn3)CC2)nc(N2CCN(C(=O)CCCCCCCCCCNC(=O)[C@H](CCCN=C(N)N)n3cc(C[C@@H](C)CC)nn3)CC2)n1	pIC50	5.66
C#CCOCCOCCOCCNc1nc(N2CCN(C(=O)CCCCCCCCCCNC(=O)[C@H]([C@@H](C)CC)n3cc(CCCCCN)nn3)CC2)nc(N2CCN(C(=O)CCCCCCCCCCNC(=O)[C@H](CCCCN)n3cc(CCCC(=O)O)nn3)CC2)n1	pIC50	5.22

pIC50 for `C#CCOCCOCCOCCNc1nc(N2CCN(C(=O)CCCCCCCCCCNC(=O)Cn3cc(CCCCCN)nn3)CC2)nc(N2CCN(C(=O)CCCCCCCCCCNC(=O)Cn3cc(CCCCCN)nn3)CC2)n1` is 5.47

Value source: BindingDB's records for doi:10.7270/Q2SB4462
